B1: Membrane-associated guanylate kinase, WW and PDZ domain-containing protein 2, residues 601 to 682; numbered along this chain, Q86UL8 (parent)
chain: AELMTLTIVKGAQGFGFTIADSPTGQRVKQILDIQGCPGLCEGDLIVEINQQNVQNLSHTEVVDILKDCPIGSETSLIIHRG

- Variants of: B1
- ASSAY EXPLANATION: abundance fitness (aPCA) (normalised: wild type 0, dead -1); higher = more abundant; growth selection in yeast, the domain comes from the species named
- CONDITION SUMMARY: Homo sapiens
Entry class follows abundance fitness: band A = under -0.2, band B = from -0.2 up to -0.04, band C = -0.04 and over

Here are 3 variants together with their reported answers.
>  <MUTATION KEY>
G43A

>  <CLASS NAME>
band B

$$$$
>  <MUTATION KEY>
A20V

>  <CLASS NAME>
band B

$$$$
>  <MUTATION KEY>
V62G

>  <CLASS NAME>
band A

$$$$

*Q* Bin this entry: T18V
*A* band C

*Q* Now consider N56P and answer again.
*A* band C

*Q* Now consider N53H and answer again.
*A* band B

*Q* Now consider F17K and answer again.
*A* band A

*Q* Now consider G39M and answer again.
*A* band B
